Reference source for all entries: patent US5814634A

Kindly state cytotoxicity at 4 h, 100 µM for each of the entries shown.
# experimental-protocol: in vitro
# test-conditions: rabbit, gastric mucosal cells
Answers are plain numbers, in %.

See these solved cases before continuing.
>  <sample-smiles>
CC(C)=CCC/C(C)=C/COc1ccc(C(=O)NCCN2CCN(c3ncccn3)CC2)cc1

>  <display-unit>
%

>  <quantitative-result>
3

$$$$
>  <sample-smiles>
CC(C)=CCC/C(C)=C/COc1ccc(C(=O)NCCN2CCN(c3ccccc3)CC2)cc1

>  <display-unit>
%

>  <quantitative-result>
11

$$$$

Parameters: items (list). Returns: cytotoxicity at 4 h, 100 µM for each item.
1. CC(C)=CCOc1ccc(C(=O)NCCN2CCOCC2)cc1OCC=C(C)C
2. CCN1CCN(CCNC(=O)c2ccc(OC/C=C(\C)CCC=C(C)C)cc2)CC1

### Response
1: -17; 2: 30
